experiment: drug combination growth inhibition, ovarian cancer – cell-based, oncology-focused library, rucaparib conditional, profiling panel (AID 1508598); conditions: patient-derived ovarian cancer cells, CellTiter-Glo viability, 144 h; at 0.00122 µM; OCI-C5x cells; without rucaparib; hits give low values

{"compound-smiles": "CC(=O)O[C@@]1(C(C)=O)CC[C@H]2[C@@H]3C[C@H](C)C4=CC(=O)CC[C@]4(C)[C@@H]3CC[C@@]21C", "unit": "%", "viability": 120}
{"compound-smiles": "CC(C)C[C@H](NP(=O)(O)O[C@@H]1O[C@@H](C)[C@H](O)[C@@H](O)[C@H]1O)C(=O)N[C@@H](Cc1c[nH]c2ccccc12)C(=O)O", "unit": "%", "viability": 113}
{"compound-smiles": "COc1cccc2c1C(=O)c1c(O)c3c(c(O)c1C2=O)C[C@@](O)(C(C)=O)C[C@H]3O[C@H]1C[C@H](N)[C@H](O)[C@H](C)O1", "unit": "%", "viability": 101}
{"compound-smiles": "CC(C)(C)C(=O)Nc1ccc2c(c1)C(=O)C(=O)c1ccccc1-2", "unit": "%", "viability": 103}
{"compound-smiles": "CC(=O)O[C@@]1(C(C)=O)CC[C@H]2[C@@H]3C=C(C)C4=CC(=O)CC[C@]4(C)[C@@H]3CC[C@@]21C", "unit": "%", "viability": 97.6}
{"compound-smiles": "COc1cc([C@H]2c3cc4c(cc3[C@@H](O[C@@H]3O[C@@H]5CO[C@@H](c6cccs6)O[C@H]5[C@H](O)[C@H]3O)[C@H]3COC(=O)[C@H]23)OCO4)cc(OC)c1O", "unit": "%", "viability": 111}
{"compound-smiles": "COc1cc(=C2C=c3ccccc3=N2)[nH]/c1=C\\c1[nH]c(C)cc1C", "unit": "%", "viability": 124}

Measured values drawn from PubChem BioAssay for this set.
